Tested on: OSR1
Construct: gene OXSR1
condition-notes: concentration: 1 μM, replicates: in singlicate; n = 1;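 further: KINOMEscan kinase panel screen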
Please provide measured %Inh for the entries that follow.
Entry rule: numbers only, all in %.

What the record says about `Cl.c1ccc(Cn2ccc3cc(Nc4ncnc5ccccc45)ccc32)cc1` : %Inh is 1

What the record says about `Fc1cccc(COc2ccc(Nc3ncnc4cc[nH]c34)cc2Cl)c1` : %Inh is 21

What the record says about `OCCOCCn1ccc2ncnc(Nc3ccc(Oc4cccc(Cl)c4)c(Cl)c3)c21` : %Inh is 0

What the record says about `Clc1cc(Nc2ncnc3cc[nH]c23)ccc1OCc1ccccn1` : %Inh is 2

What the record says about `CS(=O)(=O)CCNCc1nc(-c2ccc3ncnc(Nc4ccc(OCc5cccc(F)c5)c(Cl)c4)c3c2)cs1.Cl` : %Inh is 0

---

System: CSNK1E
condition-notes: concentration: 1 μM, replicates: in singlicate; n = 1
The label is fulfilled for %Inh below 30% and not fulfilled for %Inh equal to or exceeding 30%.

# check: %Inh < 30% for CNc1nccc(-c2c(-c3ccc(F)cc3)ncn2C2CCN(C)CC2)n1 [SB-222903]
not fulfilled

# check: %Inh < 30% for CC(C)(C)c1ccc(-n2cnc3c(N)ncnc32)cc1 [SKF-97263]
fulfilled

# check: %Inh < 30% for `O=C(CCO)NCCn1ccc2ncnc(Nc3ccc(Oc4cccc(C(F)(F)F)c4)c(Cl)c3)c21`
fulfilled

# check: %Inh < 30% for CSc1nn2c(=O)cc(N3CCOCC3)nc2n1Cc1cccc(Cl)c1Cl [GSK2347225]
not fulfilled

# check: %Inh < 30% for Fc1ccc(Nc2nccc(-c3c(-c4ccc(Cl)cc4)nn4ncccc34)n2)cc1F [GW829058]
fulfilled

# check: %Inh < 30% for `C[C@@H]1CCN(C(=O)CO)C[C@@H]1N(C)c1ncnc2[nH]ccc12`
fulfilled

# check: %Inh < 30% for COC(=O)c1cccc(NC(=O)NCCNc2ccnc(Nc3ccc(F)cc3)n2)c1 [GSK1379883]
fulfilled

# check: %Inh < 30% for Cl.c1ccc(Cn2ncc3cc(Nc4ncnc5ccccc45)ccc32)cc1 [GW273749]
not fulfilled

---

System: MYLK2
condition-notes: concentration: 1 μM, replicates: in singlicate; n = 1
Please provide measured %Inh for the entries that follow.
Entry rule: numbers only, all in %.

What the record says about CS(=O)(=O)CCNCc1ccc(-c2ccc3ncnc(Nc4ccc(OCc5ccccc5)c(Cl)c4)c3c2)o1.Cl [GW574783] : %Inh is 16

What the record says about O=C(Nc1n[nH]c2nc(-c3ccco3)c(Br)cc12)c1ccc(CN2CCCC2)cc1.O=C(O)[C@H](O)[C@@H](O)C(=O)O [SB-742352] : %Inh is 96.3

What the record says about C[C@H]1CC[C@@H](C(=O)Nc2ccccc2)CN1c1cc(-c2ccc3c(N)n[nH]c3c2)nc(N)n1 [GSK2283293] : %Inh is 1

What the record says about CS(=O)(=O)CCNCc1nc(-c2ccc3ncnc(Nc4ccc(OCc5cccc(F)c5)c(Cl)c4)c3c2)cs1.Cl [GW583340] : %Inh is 0

What the record says about Cc1ccc(NC(=O)c2cccc(C#N)c2)cc1-c1ccc(C(=O)Nc2ccncc2)cc1 [GSK1398463] : %Inh is 26

What the record says about CC(=O)Nc1n[nH]c2ncc(-c3ccccc3)cc12 [SB-548492] : %Inh is 37

What the record says about Cl.O=S(=O)(c1cccc(F)c1)c1ccc(Nc2ncnc3cc(Br)sc23)cc1Cl [GSK306886] : %Inh is 3

What the record says about CC(C)(C)OC(=O)NC1CCCN(c2cc(-c3ccc4c(N)n[nH]c4c3)nc(N)n2)C1 (stereo not drawn) [GSK2286096] : %Inh is 24

What the record says about COc1ccc(-c2oc3ncnc(N)c3c2-c2ccc(OC)cc2)cc1 [SB-589132] : %Inh is 0

What the record says about `O=C(CCO)NCCn1ccc2ncnc(Nc3ccc(Oc4cccc(C(F)(F)F)c4)c(Cl)c3)c21` : %Inh is 0

What the record says about CCCc1ccc(S(=O)(=O)NC2CCN(c3ccnc(Nc4ccc(OC)cc4)n3)C2)cc1 (stereo not drawn) [GSK1379737] : %Inh is 0

What the record says about `O=C(Nc1ccccc1)Nc1ccc(Oc2ccc3nccn3n2)cc1` : %Inh is 0

What the record says about O=C(Nc1ccccc1F)NC1CCN(c2ccnc(Nc3ccc(F)cc3)n2)C1 (stereo not drawn) [GSK1379722] : %Inh is 12

What the record says about Cc1cc(N2CCC(NS(=O)(=O)c3ccc(F)cc3)CC2)nc(Nc2cccc(C#N)c2)n1.O=C(O)C(F)(F)F [GSK1653537] : %Inh is 0

What the record says about Fc1ccc(Nc2nccc(-c3c(-c4ccc(Cl)cc4)nn4ncccc34)n2)cc1F [GW829058] : %Inh is 16

What the record says about FC(F)(F)c1ccc(-c2nn3ncccc3c2-c2ccnc(Nc3cccc(C(F)(F)F)c3)n2)cc1 [GW828205] : %Inh is 0

What the record says about Nc1nc(-c2ccc3c(N)n[nH]c3c2)cc(N2CCC[C@@H](C(=O)Nc3ccccc3)C2)n1.O=C(O)C(F)(F)F.O=C(O)C(F)(F)F [GSK2288359] : %Inh is 5

What the record says about Nc1nc(-c2ccc3c(N)n[nH]c3c2)cc(N2CCCCC2)n1 [GSK2228768] : %Inh is 0

What the record says about CN1CCC(n2cnc(-c3ccc(F)cc3)c2-c2ccnc(NC3CCNCC3)n2)CC1 [SB-229482] : %Inh is 21

What the record says about O=c1cc(N2CCOCC2)nc2n(Cc3cccc(Cl)c3)ccn12 [GSK2296823] : %Inh is 2

What the record says about Nc1n[nH]c2nnc(-c3ccccc3)cc12 [SB-517389] : %Inh is 13

What the record says about FC(F)(F)c1ccc(-c2cc(-c3c[nH]nc3-c3ccccn3)ccn2)cc1 [GW599550] : %Inh is 13

What the record says about Clc1ccc(-c2cc(-c3c[nH]nc3-c3ccccn3)ccn2)cc1 [GW681251] : %Inh is 0

What the record says about `O=C(NCCCN1CCCC1=O)c1cnc(NCc2cc(Cl)ccc2Cl)nc1NC1CCNCC1` : %Inh is 1

What the record says about CCn1c(-c2ccncc2)nc2cnccc21 [SB-735216] : %Inh is 15

What the record says about Cl.Cl.c1ccc(-c2cc3ccncc3cc2OC2CCNCC2)cc1 [GSK1122999] : %Inh is 20

What the record says about Cl.Fc1ccccc1COc1ccc(Nc2ncnc3ccc(-c4nnc(C(F)(F)F)o4)cc23)cc1Cl [GW424170] : %Inh is 0

What the record says about Fc1cccc(COc2ccc(Nc3ncnc4sc(-c5ccc[nH]5)cc34)cc2Cl)c1 [GW707818] : %Inh is 14

What the record says about CNc1nccc(-c2c(-c3ccc(F)cc3)ncn2C2CCN(C)CC2)n1 [SB-222903] : %Inh is 0

What the record says about CNc1nccc(-c2c(-c3ccc(F)cc3)ncn2CCCN2CCOCC2)n1 [SB-222516] : %Inh is 0

What the record says about Nc1nccc2scc(-c3ccc4c(c3)CCN4C(=O)Cc3cc(F)ccc3F)c12 [GSK2587663] : %Inh is 0

What the record says about Cc1ccc(C)c(NC(=O)NCCNc2ccnc(Nc3ccc(F)cc3)n2)c1 [GSK1379878] : %Inh is 0

What the record says about O=C(c1ccc(-c2cc(-c3c[nH]nc3-c3ccccn3)ccn2)cc1)N1CCCC1 [GW792479] : %Inh is 0

What the record says about CC(C)N1CCC(n2cnc(-c3ccc(F)cc3)c2-c2ccnc(N)n2)CC1 [SB-223132] : %Inh is 6

What the record says about Cn1cc(-c2ccc3c(c2)CCN3C(=O)Cc2cccc(C(F)(F)F)c2)c2c(N)ncnc21 [GSK2606414] : %Inh is 24

What the record says about Cl.Cn1ccc(-c2cccc(Nc3ccnc4cc(-c5nccs5)ccc34)c2)n1 [GW525701] : %Inh is 0

---

System: BRAF
condition-notes: concentration: 1 μM, replicates: in singlicate; n = 1
endpoint-label: %Inh (%)
Entry rule: numbers only, all in %.

What the record says about CC(C)(C)c1ccc(-n2cnc3c(N)ncnc32)cc1 [SKF-97263] : %Inh is 0

What the record says about Cn1cc(-c2ccc3c(c2)CCN3C(=O)Cc2cccc(C(F)(F)F)c2)c2c(N)ncnc21 [GSK2606414] : %Inh is 12

What the record says about `CCc1nc(-c2cccc(C)c2)c(-c2ccnc(NC(=O)c3ccccc3)c2)s1` : %Inh is 17

What the record says about CCn1c(-c2ccncc2)nc2cnccc21 [SB-735216] : %Inh is 19

What the record says about CSc1ccc(NC2=C(c3ccccc3Cl)C(=O)NC2=O)cc1 [SB-342411] : %Inh is 21
